system: Glucocorticoid receptor (Homo sapiens)
run_description: qHTS assay for small molecule agonists of glucocorticoid receptor signaling (AID 588532);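 also: 100% = dexamethasone at 0.1 µM and 0% = DMSO only wells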
stated_conditions: HeLa MMTV-bla, beta-lactamase ratio, agonist, 18 h; hits give high values; percent of dexamethasone control, DMSO zero
Results filed as inconclusive are left out.
Measured activation of individual entries
measured_property: activation (%)

[[record]]
molecule = "O=C(Cl)c1cccc([N+](=O)[O-])c1"
unit_string = "%"
test_result = 3.39

[[record]]
molecule = "CSc1ccc(C=O)cc1"
unit_string = "%"
test_result = -2.41

[[record]]
molecule = "CC(C)CO"
unit_string = "%"
test_result = -3.71

[[record]]
molecule = "CC(O)CC(C)O (centres undefined)"
unit_string = "%"
test_result = 0.893

[[record]]
molecule = "CCCCC(CC)COCC1CO1 (centres undefined)"
unit_string = "%"
test_result = -12.2

[[record]]
molecule = "CC(C)N(C)C"
unit_string = "%"
test_result = 0.0793

[[record]]
molecule = "C=CC(=O)OCCCC"
unit_string = "%"
test_result = 6.23

[[record]]
molecule = "O=C(O)c1ccc(Cl)cc1Cl"
unit_string = "%"
test_result = -5.78

[[record]]
molecule = "Cc1ccc(C)o1"
unit_string = "%"
test_result = -6.27

[[record]]
molecule = "Cc1cccc([N+](=O)[O-])c1C(=O)O"
unit_string = "%"
test_result = 4.26

[[record]]
molecule = "Nc1cccc(O)c1"
unit_string = "%"
test_result = -1.32

[[record]]
molecule = "Cc1c(C(=O)O)cccc1[N+](=O)[O-]"
unit_string = "%"
test_result = -3.11

[[record]]
molecule = "Cc1ccc(S(=O)(=O)NC2CCCCC2)cc1"
unit_string = "%"
test_result = -3.36

[[record]]
molecule = "C=C(C)C1CC=C(C)C(OC(C)=O)C1 (centres undefined)"
unit_string = "%"
test_result = 3.07

